Field: MIC. Provide a value for each of the molecules that follow.
tested on: Escherichia coli; test: In vitro antibacterial activity, agar dilution method (MIC); type: cell-based; conditions: Escherichia coli, 18 h, Escherichia coli 17-R28 (CRE, NDM-1-producing); agar dilution, 35°C
Answers are plain numbers, in µg/mL.

Solved cases below.
COC[C@H]1C[C@@H]1C#CC#Cc1ccc(C(=O)N[C@H](C(=O)NO)C(C)(C)N)cc1	0.25
CC(C)(N)[C@H](NC(=O)c1ccc(C#CC#C[C@@H]2C[C@H]2CO)cc1)C(=O)NO	0.5
CN(C)c1cc(NC(=O)CNC(C)(C)C)c(O)c2c1C[C@H]1C[C@H]3[C@H](N(C)C)C(O)=C(C(N)=O)C(=O)[C@@]3(O)C(O)=C1C2=O	0.12

Could you now consider this next molecule?
Looking for the measured MIC of C[C@@H](O)[C@H]1C(=O)N2C(C(=O)O)=C(S[C@@H]3CN[C@H](C(=O)N(C)C)C3)[C@H](C)[C@H]12 , can you help? 128
